# TARGET: HDAC2 (Homo sapiens, UniProt Q92769)
# Construct: purchased Reaction Biology Corporation (assay run by the CRO)
# Sequence (Q92769 whole entry): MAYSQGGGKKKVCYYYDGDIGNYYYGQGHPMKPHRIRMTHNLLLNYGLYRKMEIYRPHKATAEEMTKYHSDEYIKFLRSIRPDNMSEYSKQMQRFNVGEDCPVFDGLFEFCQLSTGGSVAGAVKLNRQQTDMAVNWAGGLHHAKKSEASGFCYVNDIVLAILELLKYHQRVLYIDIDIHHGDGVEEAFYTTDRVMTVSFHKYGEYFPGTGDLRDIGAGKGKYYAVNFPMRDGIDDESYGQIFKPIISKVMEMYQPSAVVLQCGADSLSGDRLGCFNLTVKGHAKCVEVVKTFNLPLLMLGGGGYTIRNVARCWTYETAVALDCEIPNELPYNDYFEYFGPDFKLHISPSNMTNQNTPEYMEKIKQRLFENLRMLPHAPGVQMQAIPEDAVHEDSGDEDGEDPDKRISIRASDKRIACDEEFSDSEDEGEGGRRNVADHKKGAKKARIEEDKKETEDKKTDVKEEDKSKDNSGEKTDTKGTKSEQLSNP
# ASSAY: HDAC2 inhibition, full IC50 measurement (Reaction Biology; fluorogenic p53 peptide RHKK(Ac)AMC)
# Assay type: biochemical
# CONDITION_INFO: Conc. 1.00E-05 M, t1
Peptide text beside a SMILES is read from it.
REPORTED_PROPERTY: HDAC2 activity raw data (signal)
In your answer, state the number alone without any accompanying words.

**Query** Fill in the recorded HDAC2 activity raw data (signal) for this compound, with HDAC2 (Homo sapiens, UniProt Q92769) as test system: CC(C)C[C@H]1NC(=O)[C@H](Cc2c[nH]c3ccccc23)NC(=O)[C@H](CCCCCS)NC(=O)[C@@H](Cc2ccc(O)cc2)NC(=O)[C@@H](C(C)C)NC(=O)[C@H](Cc2c[nH]cn2)NC(=O)CNC(=O)CNC(=O)[C@@H](CO)NC1=O [des2.2.0, SHA-Trp-dLeu-dSer-Gly-Gly-His-dVal-dTyr] (HELM PEPTIDE1{G.G.H.[dV].[dY].[O=C([C@H](CCCCCS)N[*:1])[*:2]].W.[dL].[dS]}$PEPTIDE1,PEPTIDE1,1:R1-9:R2$$$V2.0)
**Result** 686926
